# Tested on: Plasmodium falciparum
# Procedure text: Antiplasmodial activity against chloroquine-resistant Plasmodium falciparum FcB1 after 48 hrs
# Assay type: functional, organism-based
# Cond: FcB1/Columbia
Property name: IC50

Study these solved cases before continuing.
So, CO[C@]12OC(O)C3=C1[C@@](C)(CCC3=O)c1cc3c(OS(=O)(=O)O)ccc(O)c3cc1C2=O (some centres undefined) ? Its IC50 was > 21 µM

So, C[C@@]12CC[C@H](O)[C@@H]3COC(=C31)C(=O)c1cc3c(cc12)C(=O)CC[C@@H]3O [TETRAHYDROHALENAQUINONE A] ? Its IC50 was > 29 µM

So, C[C@@]12CC[C@H](O)[C@@H]3COC(=C31)C(=O)c1cc3c(cc12)C(O)CCC3=O (some centres undefined) ? Its IC50 was > 29 µM

// next item, IC50 requested
So, `C[C@@]12CCC(=O)c3coc(c31)C(=O)c1cc3c(cc12)C(=O)C1=C(C3=O)S(=O)(=O)CCN1` ? Its IC50 was 1.08 µM

Reference for the values: ChEMBL document CHEMBL1212858
